target: HDAC6 (Homo sapiens (Human)); assay: HDAC6 enzymatic assay; assay type: biochemical; details: read-out: Human HDAC6 IC50
Sequence (Q9UBN7 whole entry): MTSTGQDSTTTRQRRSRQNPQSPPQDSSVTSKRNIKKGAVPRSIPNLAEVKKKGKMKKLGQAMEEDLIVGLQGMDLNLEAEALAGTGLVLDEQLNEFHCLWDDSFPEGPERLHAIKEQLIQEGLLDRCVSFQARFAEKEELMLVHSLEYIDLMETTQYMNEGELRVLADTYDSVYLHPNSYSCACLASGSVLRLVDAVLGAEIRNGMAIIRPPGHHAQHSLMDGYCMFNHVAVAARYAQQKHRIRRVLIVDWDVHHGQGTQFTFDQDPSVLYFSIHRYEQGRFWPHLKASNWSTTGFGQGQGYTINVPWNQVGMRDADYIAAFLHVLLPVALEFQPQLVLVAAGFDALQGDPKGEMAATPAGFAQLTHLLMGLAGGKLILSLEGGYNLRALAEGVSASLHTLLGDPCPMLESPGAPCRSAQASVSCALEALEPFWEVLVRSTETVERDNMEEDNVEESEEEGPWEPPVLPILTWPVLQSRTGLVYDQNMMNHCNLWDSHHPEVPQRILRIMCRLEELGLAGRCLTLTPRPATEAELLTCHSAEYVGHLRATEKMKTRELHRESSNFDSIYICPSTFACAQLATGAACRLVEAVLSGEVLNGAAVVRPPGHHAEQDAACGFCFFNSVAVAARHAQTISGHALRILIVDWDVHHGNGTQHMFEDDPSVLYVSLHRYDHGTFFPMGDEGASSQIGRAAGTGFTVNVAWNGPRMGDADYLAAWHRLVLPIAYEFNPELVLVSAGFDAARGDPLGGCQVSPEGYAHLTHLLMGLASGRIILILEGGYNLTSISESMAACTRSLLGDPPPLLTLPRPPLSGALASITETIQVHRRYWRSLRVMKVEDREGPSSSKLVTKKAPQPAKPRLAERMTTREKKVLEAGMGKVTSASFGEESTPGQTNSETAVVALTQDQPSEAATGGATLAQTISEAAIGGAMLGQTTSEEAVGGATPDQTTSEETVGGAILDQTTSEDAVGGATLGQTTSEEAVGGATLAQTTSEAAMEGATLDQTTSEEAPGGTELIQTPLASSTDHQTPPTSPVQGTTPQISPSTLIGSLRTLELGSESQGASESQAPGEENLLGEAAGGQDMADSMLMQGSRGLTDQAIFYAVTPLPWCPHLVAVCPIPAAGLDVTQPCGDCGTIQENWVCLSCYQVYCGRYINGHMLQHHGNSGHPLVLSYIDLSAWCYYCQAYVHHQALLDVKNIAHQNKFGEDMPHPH
pIC50: −log10 of the molar value.
Entry flag: rule met if pIC50 reaches 7; rule not met if it does not.

| molecule | label_class |
| --- | --- |
| CC(O)C(Nc1ncc(-c2nnc(C(F)F)o2)cn1)c1ccc(F)cc1F (stereo not drawn) [Example 93] | rule met |
| CN(CC(Nc1ncc(-c2nnc(C(F)F)o2)cn1)c1ccc(F)cc1F)S(=O)(=O)C1CC1 (stereo not drawn) [143(+)] | rule met |

query: In plain terms: is recorded pIC50 at least 7 for CS(=O)(=O)Nc1ccc(C(Nc2ncc(-c3nnc(C(F)F)o3)cn2)c2ccc(F)cc2)cc1 (stereo not drawn) [Example 129] ?
result: rule not met

query: Check this molecule for pIC50 at or above 7: Fc1cccc(C2(Nc3ncc(-c4nnc(C(F)F)o4)cn3)CC2)c1 [Example 57]
result: rule met

query: Can O=C(C(Nc1ncc(-c2nnc(C(F)F)o2)cn1)c1ccc(F)cc1)N1CCOCC1 (stereo not drawn) [Example 30] be said to have pIC50 at or above 7?
result: rule not met

query: Dear colleague, could you confirm whether CC(C)C1(Nc2ncc(-c3nnc(C(F)F)o3)cn2)CC1 [Example 28] has pIC50 at or above 7?
result: rule not met

query: Entry Fc1ccc(C2(Nc3ncc(-c4nnc(C(F)F)o4)cn3)CC2)cc1F [Example 59] : is its pIC50 no less than 7?
result: rule met
